- target.entity: CB2 receptors (Rattus norvegicus, UniProt Q9QZN9)
- Sequence (Q9QZN9 1-360): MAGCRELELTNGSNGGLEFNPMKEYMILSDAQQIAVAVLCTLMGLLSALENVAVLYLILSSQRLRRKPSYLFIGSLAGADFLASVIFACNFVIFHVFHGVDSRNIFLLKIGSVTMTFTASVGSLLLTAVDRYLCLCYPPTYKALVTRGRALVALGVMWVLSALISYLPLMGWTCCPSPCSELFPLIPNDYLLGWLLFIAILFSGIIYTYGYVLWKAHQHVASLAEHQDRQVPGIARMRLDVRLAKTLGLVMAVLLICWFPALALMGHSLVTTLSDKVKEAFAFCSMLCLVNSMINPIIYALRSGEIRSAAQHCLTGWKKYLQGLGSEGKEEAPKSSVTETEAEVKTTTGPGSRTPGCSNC
Ki: recorded values
property.measured: Ki (nM)

compound	property.measured	uom	data.value
Cc1c(C(=O)NN2CCCCCC2)nn(-c2ccc(Cl)cc2Cl)c1-c1ccc(Cl)s1 [Example 3.1c]	Ki	nM	270
Cc1c(C(=O)NN2CCCCC2)nn(-c2ccc(Cl)cc2Cl)c1-c1ccc(Cl)s1 [Example 3.1b]	Ki	nM	476

---

- target.entity: CB1 receptors (Rattus norvegicus, UniProt P20272)
- Sequence (P20272 whole entry): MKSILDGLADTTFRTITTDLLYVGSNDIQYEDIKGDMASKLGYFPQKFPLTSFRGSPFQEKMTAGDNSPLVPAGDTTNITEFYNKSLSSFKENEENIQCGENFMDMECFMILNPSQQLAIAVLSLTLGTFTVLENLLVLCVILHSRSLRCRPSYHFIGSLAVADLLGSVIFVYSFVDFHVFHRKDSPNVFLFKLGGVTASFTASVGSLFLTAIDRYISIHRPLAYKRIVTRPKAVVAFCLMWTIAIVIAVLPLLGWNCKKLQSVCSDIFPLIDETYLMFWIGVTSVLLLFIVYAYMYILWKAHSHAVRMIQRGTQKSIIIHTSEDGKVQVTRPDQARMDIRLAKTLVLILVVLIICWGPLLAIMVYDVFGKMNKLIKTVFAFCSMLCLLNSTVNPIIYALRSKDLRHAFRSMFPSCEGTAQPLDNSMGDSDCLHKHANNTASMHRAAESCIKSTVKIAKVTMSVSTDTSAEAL
- method: Radioreceptor binding, [3H]-CP-55,940 displacement, rat brain membranes
- setup.conditions: 1 nM [3H]-CP55,940
pKi: −log10 of the molar value.
pKi: recorded values
property.measured: pKi

compound	data.value
Cc1c(C(=O)NN2CCCCC2)nn(-c2ccc(Cl)cc2Cl)c1-c1ccc(Cl)s1 [Example 3.1b]	7.46
Cc1c(C(=O)NN2CCCCCC2)nn(-c2ccc(Cl)cc2Cl)c1-c1ccc(Cl)s1 [Example 3.1c]	7.68
